# system: Prothrombin (Homo sapiens)
metric: K obs / 1 (µM⁻¹ s⁻¹)

CCN(CC)C(=O)c1cccc(-c2ccc3c(c2)C[C@@H]2OC(=O)C(CCCCC(=N)N)[C@@H]32)c1 (stereo partly specified) ... 0.42
N=C(N)CCCCC1C(=O)O[C@H]2Cc3cc(-c4ccc(O)cc4)ccc3[C@H]12 (stereo partly specified) ... 0.033
N=C(N)CCCCC1C(=O)O[C@H]2Cc3ccc(-c4cccc(-c5ccccc5)c4)cc3[C@H]12 (stereo partly specified) ... 3.8
N=C(N)CCCCC1C(=O)O[C@H]2Cc3ccc(-c4ccccc4)cc3[C@H]12 (stereo partly specified) ... 0.49
COc1cccc(-c2ccc3c(c2)C[C@@H]2OC(=O)C(CCCCC(=N)N)[C@@H]32)c1 (stereo partly specified) ... 0.096

[1] N=C(N)CCCCC1C(=O)O[C@H]2Cc3cc(-c4ccccc4)ccc3[C@H]12 (stereo partly specified)
[2] N=C(N)CCCCC1C(=O)O[C@H]2Cc3ccccc3[C@H]12 (stereo partly specified)
[3] CCN(CC)C(=O)c1cccc(-c2ccc3c(c2)[C@@H]2C(CCCCC(=N)N)C(=O)O[C@H]2C3)c1 (stereo partly specified)
*Q* List items by K obs / 1 in falling order. Hello, could you send the labels back in the order asked? Thank you.
*A* 3, 1, 2

[a] N=C(N)CCCCC1C(=O)O[C@H]2Cc3cc(-c4cccc(-c5ccccc5)c4)ccc3[C@H]12 (stereo partly specified)
[b] N=C(N)CCCCC1C(=O)O[C@H]2Cc3ccc(-c4ccc(O)cc4)cc3[C@H]12 (stereo partly specified)
*Q* Identify the entry with the larger K obs / 1. Options: a and b // output: label of the selected item
*A* b
(b: 0.27 µM⁻¹ s⁻¹, a: 0.16 µM⁻¹ s⁻¹)

* * *

pIC50: −log10 of the molar value.
Assay read-out pIC50; system under study: Prothrombin (Homo sapiens, UniProt P00734).
metric: pIC50

[a] CNC(=N)CCCC[C@H]1C(=O)O[C@H]2Cc3ccc(-c4ccc(O)cc4)cc3[C@@H]21
[b] N=C(N)CCCCC1C(=O)O[C@H]2Cc3ccc(-c4ccc(O)cc4)cc3[C@H]12 (some centres not stated)
*Q* Hi, I'm comparing a with b and wondering which one has the bigger number for pIC50. Any idea? In your reply, give the label of the chosen option.
*A* b
(b: 8.05, a: 5.80)

* * *

# system: Serine protease 1 (Homo sapiens)
# assay_notes: Inhibitory activity against protease trypsin was determined
metric: K obs / 1 (M⁻¹ s⁻¹)

Example cases with answers are listed next.
N=C(N)CCCCC1C(=O)O[C@H]2Cc3ccc(-c4cccc(-c5ccccc5)c4)cc3[C@H]12 (stereo not given in full) ... 110000
N=C(N)CCCCC1C(=O)O[C@H]2Cc3cc(-c4ccccc4)ccc3[C@H]12 (stereo not given in full) ... 20000
CCN(CC)C(=O)c1cccc(-c2ccc3c(c2)[C@@H]2C(CCCCC(=N)N)C(=O)O[C@H]2C3)c1 (stereo not given in full) ... 200000

[1] CCN(CC)C(=O)c1cccc(-c2ccc3c(c2)C[C@@H]2OC(=O)C(CCCCC(=N)N)[C@@H]32)c1 (stereo not given in full)
[2] COc1cccc(-c2ccc3c(c2)C[C@@H]2OC(=O)C(CCCCC(=N)N)[C@@H]32)c1 (stereo not given in full)
*Q* // select label with min value of measured K obs / 1 from [ 1 , 2 ] // output: label of the selected item
*A* 2

* * *

# assay_notes: Selectivity was determined
metric: Selectivity

Check out these entries, answers already filled in.
N=C(N)CCCCC1C(=O)O[C@H]2Cc3ccc(-c4cccc(-c5ccccc5)c4)cc3[C@H]12 (stereo not given in full) ... 35
N=C(N)CCCCC1C(=O)O[C@H]2Cc3cc(-c4ccccc4)ccc3[C@H]12 (stereo not given in full) ... 2.4
COc1cccc(-c2ccc3c(c2)C[C@@H]2OC(=O)C(CCCCC(=N)N)[C@@H]32)c1 (stereo not given in full) ... 2.7

[1] CCN(CC)C(=O)c1cccc(-c2ccc3c(c2)C[C@@H]2OC(=O)C(CCCCC(=N)N)[C@@H]32)c1 (stereo not given in full)
[2] CCN(CC)C(=O)c1cccc(-c2ccc3c(c2)[C@@H]2C(CCCCC(=N)N)C(=O)O[C@H]2C3)c1 (stereo not given in full)
*Q* I need your help: which of the pair 1 , 2 has higher Selectivity? Returns: label corresponding to the selected item.
*A* 2
(2: 55, 1: 1.9)
